Tested on: PC-12
Experiment Notes: Induction of neuritogenesis in NGF-induced rat PC12 cells assessed as neurite bearing cells at 10 uM cotreated with 25 ng/ml NGF after 72 hrs by inverted microscopic analysis relative to control
Type: functional
Calls of active or inactive are those of the source. No cut-off for these calls is given here.
Assay Metric: Activity

{"Smiles": "CCCCCCCCCCCCC/C=C/[C@@H](O)[C@@H](N)CO[C@@H]1O[C@H](CO[C@]2(C(=O)O)C[C@H](O)[C@@H](NC(C)=O)[C@H]([C@@H](O)[C@H](O)CO)O2)[C@H](O)[C@H](O)[C@H]1O", "Target Entity": "PC-12", "Assay Metric": "Activity", "Reported Result": "inactive"}
{"Smiles": "CCCCCCCCCCCCC/C=C/[C@@H](O)[C@H](CO[C@@H]1O[C@H](CO)[C@@H](O[C@@H]2O[C@H](CO)[C@H](O)[C@H](O[C@]3(C(=O)O)C[C@H](O)[C@@H](NC(=O)CCl)[C@H]([C@@H](O)[C@H](O)CO)O3)[C@H]2O)[C@H](O)[C@H]1O)NC(=O)CCCCCCCCCCCCCCCCC", "Target Entity": "PC-12", "Assay Metric": "Activity", "Reported Result": "inactive"}
{"Smiles": "CCCCCCCCCCCCC/C=C/[C@@H](O)[C@H](CO[C@@H]1O[C@H](CO)[C@H](O)[C@H](O[C@]2(C(=O)O)C[C@H](O)[C@@H](NC(C)=O)[C@H]([C@@H](O)[C@H](O)CO)O2)[C@H]1O)NC(=O)CCCCCCCCCCCCCCCCC", "Target Entity": "PC-12", "Assay Metric": "Activity", "Reported Result": "inactive"}

====

System: PC-12
Experiment Notes: Induction of neuritogenesis in NGF-induced rat PC12 cells assessed as neurite bearing cells at 10 uM cotreated with 25 ng/ml NGF after 72 hrs by inverted microscopic analysis relative to control
Type: functional
Calls of active or inactive are those of the source. No cut-off for these calls is given here.

{"Smiles": "CCCCCCCCCCCCC/C=C/[C@@H](O)[C@H](CO[C@@H]1O[C@H](CO[C@]2(C(=O)O)C[C@H](O)[C@@H](NC(C)=O)[C@H]([C@@H](O)[C@H](O)CO)O2)[C@@H](O)[C@H](O)[C@H]1O)NC(=O)CCCCCCCCCCCCCCCCC", "Activity": "inactive"}
{"Smiles": "CCCCCCCCCCCCC/C=C/[C@@H](O)[C@@H](N)CO[C@@H]1O[C@H](CO[C@]2(C(=O)O)C[C@H](O)[C@@H](NC(C)=O)[C@H]([C@@H](O)[C@H](O)CO)O2)[C@@H](O)[C@H](O)[C@H]1O", "Activity": ">30%"}
{"Smiles": "CCCCCCCCCCCCC/C=C/[C@@H](O)[C@H](CO[C@@H]1O[C@H](CO[C@]2(C(=O)O)C[C@H](O)[C@@H](NC(C)=O)[C@H]([C@@H](O)[C@H](O)CO)O2)[C@H](O)[C@H](O)[C@H]1O)NC(=O)CCCCCCCCCCCCCCCCC", "Activity": "inactive"}
